// reported inhibition at 10 µM per item
test-system: α1G T-type Ca2+ channels (Homo sapiens)
Construct: expressed in transfected cells; host or cells: HEK293 cells stably expressing α1G and Kir2.1
measurement-notes: Screening of activity against T-type calcium channel with FDSS6000 (fluorescence, KCl-induced [Ca2+]i increase)
Assay type: cell-based
assay-conditions: 10 μM; HEK293 cells expressing α1G and Kir2.1; NA: Not Active; read-out: Inhibitory effect (%) of T-type calcium channel, Inhibition (%)
Your reply should be a number followed by the unit it is expressed in.

Record summary for Cc1cccc(N2C(=O)c3ccc(C(=O)NCCCN4CCCCC4C)cc3C2=O)c1 (stereo not drawn) : reported inhibition at 10 µM = 10%

Record summary for `Cc1ccc(CN2C(=O)c3ccc(C(=O)NCCN4CCCC4)cc3C2=O)cc1` : reported inhibition at 10 µM = 20.7%

###

test-system: α1G T-type Ca2+ channels (Homo sapiens)
Construct: expressed in transfected cells; host or cells: HEK293 cells stably expressing α1G and Kir2.1
measurement-notes: Screening of activity against T-type calcium channel with FDSS6000 (fluorescence, KCl-induced [Ca2+]i increase)
Type: cell-based
assay-conditions: 100 μM; HEK293 cells expressing α1G and Kir2.1; read-out: Inhibitory effect (%) of T-type calcium channel, Inhibition (%)
endpoint-name: inhibition at 100 µM (%)
Please reply with the bare figure in % and do not write the unit itself.

See these solved cases before continuing.
{"columns": ["molecule", "uom", "assay-value"],
 "data": [
  ["COc1ccccc1CN1C(=O)c2ccc(C(=O)NCCCN3CCOCC3)cc2C1=O", "%", 48.8],
  ["COc1ccc(CN2C(=O)c3ccc(C(=O)NCCCN4CCOCC4)cc3C2=O)cc1", "%", 52.9]
]}

Now examine the next entry.
Record summary for Cc1ccccc1N1C(=O)c2ccc(C(=O)NCCCN3CCCCC3C)cc2C1=O (stereo not drawn) : reported inhibition at 100 µM = 53.8

###

test-system: α1G T-type Ca2+ channels (Homo sapiens, UniProt O43497)
Construct: expressed in transfected cells; host or cells: HEK293 cells stably expressing α1G and Kir2.1
Sequence (O43497 whole entry): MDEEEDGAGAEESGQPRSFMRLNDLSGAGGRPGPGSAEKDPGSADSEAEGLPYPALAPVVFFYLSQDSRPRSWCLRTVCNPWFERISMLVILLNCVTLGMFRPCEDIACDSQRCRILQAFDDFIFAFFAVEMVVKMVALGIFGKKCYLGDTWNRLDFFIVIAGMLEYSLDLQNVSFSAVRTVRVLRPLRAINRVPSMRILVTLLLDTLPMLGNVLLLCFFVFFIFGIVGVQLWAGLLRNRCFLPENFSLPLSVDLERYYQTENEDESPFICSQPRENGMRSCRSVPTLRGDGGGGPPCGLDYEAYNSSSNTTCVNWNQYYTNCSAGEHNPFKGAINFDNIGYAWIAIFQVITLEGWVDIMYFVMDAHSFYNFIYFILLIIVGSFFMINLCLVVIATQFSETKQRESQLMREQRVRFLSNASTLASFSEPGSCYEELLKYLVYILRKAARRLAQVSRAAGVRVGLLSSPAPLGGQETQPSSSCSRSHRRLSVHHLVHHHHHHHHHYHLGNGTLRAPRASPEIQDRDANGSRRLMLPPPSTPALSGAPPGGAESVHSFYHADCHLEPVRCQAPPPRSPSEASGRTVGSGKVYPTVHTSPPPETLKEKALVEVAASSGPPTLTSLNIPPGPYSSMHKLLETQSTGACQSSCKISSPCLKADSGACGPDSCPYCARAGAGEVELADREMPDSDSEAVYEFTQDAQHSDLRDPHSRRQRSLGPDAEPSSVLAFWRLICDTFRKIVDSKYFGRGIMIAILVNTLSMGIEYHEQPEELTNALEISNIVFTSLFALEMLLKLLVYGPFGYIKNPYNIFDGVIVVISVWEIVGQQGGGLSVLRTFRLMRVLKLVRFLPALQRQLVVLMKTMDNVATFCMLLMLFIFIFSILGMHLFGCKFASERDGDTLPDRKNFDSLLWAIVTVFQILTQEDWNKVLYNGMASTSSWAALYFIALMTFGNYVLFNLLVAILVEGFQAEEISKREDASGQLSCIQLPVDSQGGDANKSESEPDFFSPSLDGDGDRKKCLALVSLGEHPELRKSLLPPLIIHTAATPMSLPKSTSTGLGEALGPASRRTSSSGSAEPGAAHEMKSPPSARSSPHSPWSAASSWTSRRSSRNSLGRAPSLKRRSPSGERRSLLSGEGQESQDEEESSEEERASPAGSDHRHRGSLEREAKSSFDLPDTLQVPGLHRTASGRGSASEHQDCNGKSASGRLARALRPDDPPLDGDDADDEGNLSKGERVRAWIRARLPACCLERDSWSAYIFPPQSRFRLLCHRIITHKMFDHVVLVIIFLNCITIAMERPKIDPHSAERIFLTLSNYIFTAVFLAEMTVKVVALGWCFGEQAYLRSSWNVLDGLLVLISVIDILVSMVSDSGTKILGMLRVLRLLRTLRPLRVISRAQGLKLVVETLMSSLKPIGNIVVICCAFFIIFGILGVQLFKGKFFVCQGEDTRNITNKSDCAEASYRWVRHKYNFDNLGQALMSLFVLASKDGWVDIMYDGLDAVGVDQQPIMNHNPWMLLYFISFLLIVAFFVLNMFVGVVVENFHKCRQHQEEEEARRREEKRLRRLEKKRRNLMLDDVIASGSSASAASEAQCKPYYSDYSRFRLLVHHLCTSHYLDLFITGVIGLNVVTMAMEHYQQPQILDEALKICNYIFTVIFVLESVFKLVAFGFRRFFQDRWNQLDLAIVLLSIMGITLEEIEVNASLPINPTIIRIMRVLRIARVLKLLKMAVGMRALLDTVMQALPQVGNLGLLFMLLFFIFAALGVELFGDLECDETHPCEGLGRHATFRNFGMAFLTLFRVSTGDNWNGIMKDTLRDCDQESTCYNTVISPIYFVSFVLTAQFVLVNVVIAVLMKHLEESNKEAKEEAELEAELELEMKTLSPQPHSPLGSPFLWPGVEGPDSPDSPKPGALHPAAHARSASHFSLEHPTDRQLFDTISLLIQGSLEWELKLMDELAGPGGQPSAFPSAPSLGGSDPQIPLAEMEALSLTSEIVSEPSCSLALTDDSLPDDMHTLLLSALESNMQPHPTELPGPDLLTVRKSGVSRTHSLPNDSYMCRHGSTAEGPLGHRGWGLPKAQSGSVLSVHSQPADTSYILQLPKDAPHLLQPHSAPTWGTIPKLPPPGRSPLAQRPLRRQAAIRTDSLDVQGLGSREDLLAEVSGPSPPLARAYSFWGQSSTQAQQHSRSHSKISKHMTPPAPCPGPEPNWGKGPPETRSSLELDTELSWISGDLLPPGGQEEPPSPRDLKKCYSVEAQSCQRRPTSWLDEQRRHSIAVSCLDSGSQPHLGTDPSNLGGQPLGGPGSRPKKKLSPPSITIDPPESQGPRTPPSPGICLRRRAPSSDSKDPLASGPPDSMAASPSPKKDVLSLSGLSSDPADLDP
measurement-notes: Screening of activity against T-type calcium channel with FDSS6000 (fluorescence, KCl-induced [Ca2+]i increase)
Format: cell-based
assay-conditions: 100 μM; HEK293 cells expressing α1G and Kir2.1; read-out: Inhibitory effect (%) of T-type calcium channel, Inhibition (%)
// reported inhibition at 100 µM per item
Please reply with the bare figure in % and do not write the unit itself.

{"columns": ["compound", "assay-value"],
 "data": [
  ["CC1CCCCN1CCCNC(=O)c1ccc2c(c1)C(=O)N(Cc1ccccc1F)C2=O (stereo not shown) [Compound 56]", 78.8]
]}

// returns inhibition at 100 µM for Cc1ccccc1N1C(=O)c2ccc(C(=O)NCCN3CCCCC3)cc2C1=O [Compound 28] with α1G T-type Ca2+ channels (Homo sapiens, UniProt O43497); value = 45.6

// returns inhibition at 100 µM for O=C(NCCN1CCCC1)c1ccc2c(c1)C(=O)N(Cc1ccccc1)C2=O [Compound 51] with α1G T-type Ca2+ channels (Homo sapiens, UniProt O43497); value = 48.4

// returns inhibition at 100 µM for O=C(NCCN1CCOCC1)c1ccc2c(c1)C(=O)N(c1cccc(F)c1)C2=O [Compound 17] with α1G T-type Ca2+ channels (Homo sapiens, UniProt O43497); value = 29.2

###

test-system: α1G T-type Ca2+ channels (Homo sapiens, UniProt O43497)
Construct: expressed in transfected cells; host or cells: HEK293 cells stably expressing α1G and Kir2.1
measurement-notes: Screening of activity against T-type calcium channel with FDSS6000 (fluorescence, KCl-induced [Ca2+]i increase)
Assay type: cell-based
assay-conditions: 10 μM; HEK293 cells expressing α1G and Kir2.1; NA: Not Active; read-out: Inhibitory effect (%) of T-type calcium channel, Inhibition (%)
endpoint-name: inhibition at 10 µM (%)
Please reply with the bare figure in % and do not write the unit itself.

Record summary for CC1CCCCN1CCCNC(=O)c1ccc2c(c1)C(=O)N(Cc1ccc(Cl)cc1)C2=O (stereo not drawn) [Compound 88] : reported inhibition at 10 µM = 46.6

Record summary for O=C(NCCN1CCOCC1)c1ccc2c(c1)C(=O)N(Cc1ccc(Cl)cc1)C2=O [Compound 91] : reported inhibition at 10 µM = 26.1

Record summary for O=C(NCCCN1CCCC1)c1ccc2c(c1)C(=O)N(Cc1cccc(Cl)c1)C2=O [Compound 84] : reported inhibition at 10 µM = 30.4

###

test-system: α1G T-type Ca2+ channels (Homo sapiens)
Construct: expressed in transfected cells; host or cells: HEK293 cells stably expressing α1G and Kir2.1
measurement-notes: Screening of activity against T-type calcium channel with FDSS6000 (fluorescence, KCl-induced [Ca2+]i increase)
Format: cell-based
assay-conditions: 100 μM; HEK293 cells expressing α1G and Kir2.1; read-out: Inhibitory effect (%) of T-type calcium channel, Inhibition (%)
// reported inhibition at 100 µM per item

See these solved cases before continuing.
{"columns": ["molecule", "assay-value"],
 "data": [
  ["CC1CCCCN1CCCNC(=O)c1ccc2c(c1)C(=O)N(c1ccc(F)cc1)C2=O (stereo not shown)", "44.7%"],
  ["O=C(NCCCN1CCOCC1)c1ccc2c(c1)C(=O)N(c1cccc(F)c1)C2=O", "22.7%"],
  ["COc1cccc(CN2C(=O)c3ccc(C(=O)NCCCN4CCCC4)cc3C2=O)c1", "63.7%"],
  ["O=C(NCCN1CCOCC1)c1ccc2c(c1)C(=O)N(c1ccccc1F)C2=O", "22.7%"],
  ["Cc1ccc(N2C(=O)c3ccc(C(=O)NCCN4CCCCC4)cc3C2=O)cc1", "39.4%"],
  ["O=C(NCCN1CCCCC1)c1ccc2c(c1)C(=O)N(Cc1cccc(F)c1)C2=O", "85.5%"],
  ["COc1ccccc1CN1C(=O)c2ccc(C(=O)NCCCN3CCCC3)cc2C1=O", "53%"],
  ["O=C(NCCN1CCCCC1)c1ccc2c(c1)C(=O)N(c1ccc(Cl)cc1)C2=O", "44.5%"]
]}

// returns inhibition at 100 µM for `O=C(NCCN1CCCCC1)c1ccc2c(c1)C(=O)N(c1ccccc1F)C2=O` with α1G T-type Ca2+ channels (Homo sapiens); value = 40.6%

// returns inhibition at 100 µM for `COc1cccc(N2C(=O)c3ccc(C(=O)NCCN4CCCCC4)cc3C2=O)c1` with α1G T-type Ca2+ channels (Homo sapiens); value = 31.4%

// returns inhibition at 100 µM for `O=C(NCCCN1CCOCC1)c1ccc2c(c1)C(=O)N(c1ccc(F)cc1)C2=O` with α1G T-type Ca2+ channels (Homo sapiens); value = 21.4%

###

test-system: α1G T-type Ca2+ channels (Homo sapiens)
Construct: expressed in transfected cells; host or cells: HEK293 cells stably expressing α1G and Kir2.1
measurement-notes: Screening of activity against T-type calcium channel with FDSS6000 (fluorescence, KCl-induced [Ca2+]i increase)
Type: cell-based
assay-conditions: 10 μM; HEK293 cells expressing α1G and Kir2.1; NA: Not Active; read-out: Inhibitory effect (%) of T-type calcium channel, Inhibition (%)
endpoint-name: inhibition at 10 µM (%)
Please reply with the bare figure in % and do not write the unit itself.

See these solved cases before continuing.
{"columns": ["compound", "test-system", "assay-value"],
 "data": [
  ["Cc1ccc(CN2C(=O)c3ccc(C(=O)NCCCN4CCCC4)cc3C2=O)cc1 [Compound 108]", "α1G T-type Ca2+ channels (Homo sapiens)", 15.6],
  ["O=C(NCCN1CCCCC1)c1ccc2c(c1)C(=O)N(Cc1cccc(Cl)c1)C2=O [Compound 81]", "α1G T-type Ca2+ channels (Homo sapiens)", 42.9],
  ["Cc1cccc(N2C(=O)c3ccc(C(=O)NCCN4CCOCC4)cc3C2=O)c1 [Compound 37]", "α1G T-type Ca2+ channels (Homo sapiens)", 1.3],
  ["Cc1cccc(CN2C(=O)c3ccc(C(=O)NCCN4CCOCC4)cc3C2=O)c1 [Compound 103]", "α1G T-type Ca2+ channels (Homo sapiens)", 21.1]
]}

Record summary for O=C(NCCCN1CCOCC1)c1ccc2c(c1)C(=O)N(Cc1cccc(Cl)c1)C2=O [Compound 86] : reported inhibition at 10 µM = 27.8

Record summary for Cc1cccc(CN2C(=O)c3ccc(C(=O)NCCCN4CCOCC4)cc3C2=O)c1 [Compound 104] : reported inhibition at 10 µM = 15.5

Record summary for Cc1cccc(N2C(=O)c3ccc(C(=O)NCCCN4CCOCC4)cc3C2=O)c1 [Compound 38] : reported inhibition at 10 µM = 4.2

###

// reported inhibition at 100 µM per item
test-system: α1G T-type Ca2+ channels (Homo sapiens)
Construct: expressed in transfected cells; host or cells: HEK293 cells stably expressing α1G and Kir2.1
measurement-notes: Screening of activity against T-type calcium channel with FDSS6000 (fluorescence, KCl-induced [Ca2+]i increase)
Assay type: cell-based
assay-conditions: 100 μM; HEK293 cells expressing α1G and Kir2.1; read-out: Inhibitory effect (%) of T-type calcium channel, Inhibition (%)
Please reply with the bare figure in % and do not write the unit itself.

{"columns": ["compound", "endpoint-name", "uom", "assay-value"],
 "data": [
  ["O=C(NCCCN1CCCC1)c1ccc2c(c1)C(=O)N(Cc1ccccc1F)C2=O [Compound 58]", "inhibition at 100 µM", "%", 70.6],
  ["O=C(NCCN1CCCCC1)c1ccc2c(c1)C(=O)N(Cc1ccc(F)cc1)C2=O [Compound 68]", "inhibition at 100 µM", "%", 78.2]
]}

Record summary for O=C(NCCN1CCOCC1)c1ccc2c(c1)C(=O)N(Cc1cccc(F)c1)C2=O [Compound 65] : reported inhibition at 100 µM = 59.8
